Experiment: Cytotoxicity MTT assay, BJ cells
Type: cell-based
Settings: human, BJ normal human fibroblast cells, μM converted to μg mL^−1, read-out: IC50 cytotoxicity against human normal cell line (BJ)
measured attribute: IC50 at 48 h (µg/mL)
Answer with a number only, understood to be in µg/mL.

-- ask Can you look up the measured IC50 at 48 h of CC1CC2(C)C(CCC3C2CCC2(C)C3CCC2(C)O)CC1=O (stereo not shown) [Compound 1, methasterone] for me?
-- reply 8.01
